Test system: MCF7 breast
protocol: NCI tumour cell line growth inhibition, 48 h
result.type: TGI

Ask | # value lookup — system MCF7 breast, readout TGI, item C=C1C(=O)O[C@H]2[C@H]1CC/C(CNC(=O)/C=C/c1cc(OC)c(OC)c(OC)c1)=C\CC[C@@]1(C)O[C@@H]21
Reply | 10.8 µM

Ask | # value lookup — system MCF7 breast, readout TGI, item C/C(=C(/C)c1ccc(O)cc1)c1ccc(O)cc1
Reply | > 100 µM

Ask | # value lookup — system MCF7 breast, readout TGI, item CC1(C)C2C=C(CCN3CCOCC3)CC1C2 (stereo not given)
Reply | > 100 µM

Ask | # value lookup — system MCF7 breast, readout TGI, item O=C1C(Cl)=C(Nc2cccc(F)c2)C(=O)N1Cc1ccc(Cl)cc1
Reply | 7.91 µM

Ask | # value lookup — system MCF7 breast, readout TGI, item CN1CCN(C(=S)N(C(=O)c2ccc(Cl)cc2)c2ccccc2)CC1
Reply | > 100 µM

Ask | # value lookup — system MCF7 breast, readout TGI, item C/C=C(\C)C(=O)NC1=CC[C@@]2(C)C(=CCC3C2CC[C@@]2(C)C3CC[C@@H]2C(C)N(C)C)C1=O (stereo not given in full)
Reply | 14.2 µM

Ask | # value lookup — system MCF7 breast, readout TGI, item O=C(c1ccccc1)c1ccccc1-c1ccccc1
Reply | > 100 µM

Ask | # value lookup — system MCF7 breast, readout TGI, item Cc1ccc(Cc2n[nH]c(=O)n2Nc2ccccc2)cc1
Reply | > 100 µM

Ask | # value lookup — system MCF7 breast, readout TGI, item O=c1cc(-c2ccccc2)[nH]c2ccc(N3CCOCC3)cc12
Reply | > 93.5 µM

Ask | # value lookup — system MCF7 breast, readout TGI, item COc1cc(C2=C(c3cc(OC)c4ccccc4c3OC)C(=O)c3ccccc3C2=O)c(OC)c2ccccc12
Reply | > 100 µM

Ask | # value lookup — system MCF7 breast, readout TGI, item CCOC(=O)Nc1ccc2c(c1)/C(=N\NC(N)=S)c1ccccc1-2
Reply | 23.8 µM

Ask | # value lookup — system MCF7 breast, readout TGI, item CC(=O)c1ccc2c(c1)c1c(C)c3c[n+](C)ccc3c(C)c1n2C
Reply | > 29 µM

Ask | # value lookup — system MCF7 breast, readout TGI, item C=C1C(=O)O[C@H]2[C@H]1CC/C(COC(=O)CSCSCC(=O)OC/C1=C/CC[C@@]3(C)O[C@H]3[C@H]3OC(=O)C(=C)[C@@H]3CC1)=C\CC[C@@]1(C)O[C@@H]21
Reply | 2.25 µM

Ask | # value lookup — system MCF7 breast, readout TGI, item CCCCON(OC(=O)c1ccc2ccccc2c1)C(=O)c1ccccc1
Reply | > 100 µM

Ask | # value lookup — system MCF7 breast, readout TGI, item Cc1c[n+](=O)c2ccccc2n1[O-]
Reply | > 100 µM

Ask | # value lookup — system MCF7 breast, readout TGI, item COc1cc(C(O)CCBr)c(OC)cc1C (stereo not given)
Reply | 54.7 µM

Ask | # value lookup — system MCF7 breast, readout TGI, item ClCc1cccc2c(CCl)cccc12
Reply | 7.54 µM

Ask | # value lookup — system MCF7 breast, readout TGI, item O=[N+]([O-])C(=C(Nc1ccccc1)Nc1ccccc1)/C(Cl)=C(\Cl)[N+](=O)[O-]
Reply | 20.3 µM

Ask | # value lookup — system MCF7 breast, readout TGI, item CC(C)(C)[Si](C)(C)OCC1OC(n2cnc3c(N)ncnc32)CC1O (stereo not given)
Reply | > 100 µM

Ask | # value lookup — system MCF7 breast, readout TGI, item O=c1[nH]c(=O)c2cn[nH]c2[nH]1
Reply | > 100 µM

Ask | # value lookup — system MCF7 breast, readout TGI, item COC(=O)C1CC2CCC1(O[Si](C(C)C)(C(C)C)C(C)C)C(O)C2 (stereo not given)
Reply | 28.4 µM

Ask | # value lookup — system MCF7 breast, readout TGI, item Cc1ccc(S(=O)(=O)N2CCC(=O)c3cc(Br)ccc32)cc1
Reply | > 49.1 µM

Ask | # value lookup — system MCF7 breast, readout TGI, item c1cncc(C2(c3cc4ccccc4[nH]3)COCO2)c1 (stereo not given)
Reply | > 100 µM

Ask | # value lookup — system MCF7 breast, readout TGI, item COc1c2cc(C(C)(C)C)cc1Cc1cccc(c1OCc1cccc([N+](=O)[O-])c1)Cc1cc(C(C)(C)C)cc(c1OC)Cc1cccc(c1OCc1cccc([N+](=O)[O-])c1)Cc1cc(C(C)(C)C)cc(c1OC)Cc1cccc(c1OCc1cccc([N+](=O)[O-])c1)C2
Reply | > 50 µM

Ask | # value lookup — system MCF7 breast, readout TGI, item O=C1/C(=c2\s/c(=C\c3ccccc3)c(=O)n2-c2ccccc2)SC(=S)N1c1ccccc1
Reply | > 100 µM

Ask | # value lookup — system MCF7 breast, readout TGI, item NC(=O)Nc1ccc(S(=O)(=O)Nc2ccc(S(N)(=O)=O)cc2)cc1
Reply | > 100 µM

Ask | # value lookup — system MCF7 breast, readout TGI, item CC[C@@]1(O)C(=O)OCc2c1cc1n(c2=O)Cc2c-1nc1ccccc1c2/C=N\NC(=O)C(N)CO (stereo not given in full)
Reply | 21.3 µM

Ask | # value lookup — system MCF7 breast, readout TGI, item CCc1cccc(C(C)(C)C)c1NC(=S)N/C=C(/C#N)C(N)=O
Reply | > 100 µM

Ask | # value lookup — system MCF7 breast, readout TGI, item Cc1cc2c(cc1C)OC(=O)CC2
Reply | > 100 µM

Ask | # value lookup — system MCF7 breast, readout TGI, item Cc1ccc(C2=Nn3c(nc4sc(C)c(C)c4c3=O)SC2)cc1
Reply | > 100 µM

Ask | # value lookup — system MCF7 breast, readout TGI, item Cc1cccc(/C=C/c2c(C(=O)/C=C/c3ccccc3)c(C)nc3ccccc23)c1
Reply | 4.22 µM

Ask | # value lookup — system MCF7 breast, readout TGI, item Cc1ccc([N+](=O)[O-])cc1S(=O)(=O)Nc1ccc(C2=NOC(c3ccco3)C2)cc1 (stereo not given)
Reply | 35.5 µM

Ask | # value lookup — system MCF7 breast, readout TGI, item CC1OC(OC2C(O)COC(OC3C(C)OC(OC4C(OC(=O)[C@]56CCC(C)(C)C[C@@H]5C5=CCC7[C@@]8(C)C[C@H](O)[C@H](OC9OC(CO)C(O)C(OC%10OC(CO)C(O)C(O)C%10O)C9O)[C@@](C)(CO)[C@@H]8CC[C@@]7(C)[C@]5(C)CC6)OCC(O)C4O)C(O)C3OC3OCC(O)(CO)C3O)C2O)C(O)C(O)C1O (stereo not given in full)
Reply | 29.4 µM

Ask | # value lookup — system MCF7 breast, readout TGI, item COc1ccc(CCCCl)c(C2=NCCc3cc(OC)c(OC)cc32)c1
Reply | > 100 µM

Ask | # value lookup — system MCF7 breast, readout TGI, item COc1ccc(/C=C2\NC(=S)N(/C=C3\C(=O)Oc4ccccc4C3=O)C2=O)cc1OC
Reply | > 100 µM
